meta.source: the supplement of paper PMC11208160

ASSAY: recombinant barcode read abundance after kanamycin selection (control-corrected) (log10(CPM+1)); higher = more efficient recombination; sequences stand for … in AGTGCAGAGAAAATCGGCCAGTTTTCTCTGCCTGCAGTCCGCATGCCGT…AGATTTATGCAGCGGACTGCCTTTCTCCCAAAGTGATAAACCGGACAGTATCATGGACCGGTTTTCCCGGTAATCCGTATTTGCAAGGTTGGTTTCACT; site = the 11-nt target;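 further: IS621 recombinase and bridge RNA in Escherichia coli cells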
recombinant barcode read abundance (log10) below 0.2 gives no; recombinant barcode read abundance (log10) at or above it gives yes.

Is it the case that TTAGCATCTTGGGTTCTAACCTGTTGCCT (site TTAGCGTCTAG) has recombinant barcode read abundance (log10) reaching or exceeding 0.2?
no

Is it the case that AACATTCCTTGGGTTCTAACCTGTTGCCT (site TACATTCCTAG) has recombinant barcode read abundance (log10) reaching or exceeding 0.2?
no

Is it the case that TTCAGTCCTTGGGTTCTAACCTGTTGCAT (site TTAAGTCCTAG) has recombinant barcode read abundance (log10) reaching or exceeding 0.2?
no

Is it the case that TCGGAGTCTTGGGTTCTAACCTGTTGCAT (site TCGGAGTCTAA) has recombinant barcode read abundance (log10) reaching or exceeding 0.2?
yes

Is it the case that CGAGCTCCTTGGGTTCTAACCTGTTGCGT (site CGAGCTCCTAA) has recombinant barcode read abundance (log10) reaching or exceeding 0.2?
no

Is it the case that GGCAGACCTTGGGTTCTAACCTGTTGCCT (site GGCAGTCCTCG) has recombinant barcode read abundance (log10) reaching or exceeding 0.2?
yes

Is it the case that CCAGTATCTTGGGTTCTAACCTGTTGCAT (site TAGCGGCCTCC) has recombinant barcode read abundance (log10) reaching or exceeding 0.2?
no

Is it the case that GGGGAGCCTTGGGTTCTAACCTGTTGCTG (site GGGGAGTCTAA) has recombinant barcode read abundance (log10) reaching or exceeding 0.2?
yes

Is it the case that GTGGCGTCTTGGGTTCTAACCTGTTGCCT (site TTGGCCTCTAG) has recombinant barcode read abundance (log10) reaching or exceeding 0.2?
no

Is it the case that CGCGTAACTTGGGTTCTAACCTGTTGCCT (site CGCGCAACTAG) has recombinant barcode read abundance (log10) reaching or exceeding 0.2?
no

====

ASSAY: recombinant barcode read abundance after kanamycin selection (control-corrected) (log10(CPM+1)); higher = more efficient recombination; sequences stand for … in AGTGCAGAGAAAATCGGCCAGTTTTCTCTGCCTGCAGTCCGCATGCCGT…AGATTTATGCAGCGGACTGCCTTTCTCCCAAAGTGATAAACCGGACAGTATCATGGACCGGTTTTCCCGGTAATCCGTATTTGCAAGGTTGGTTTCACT; site = the 11-nt target
recombinant barcode read abundance (log10) below 0.09 gives rule not met; recombinant barcode read abundance (log10) at or above it gives rule met.

Is it the case that TAGTGCTCTTGGGTTCTAACCTGTTGCTC (site TAGTGCTCTGA) has recombinant barcode read abundance (log10) reaching or exceeding 0.09?
rule met

Is it the case that CACTTGGCTTGGGTTCTAACCTGTTGCCT (site CACTTGACTAG) has recombinant barcode read abundance (log10) reaching or exceeding 0.09?
rule not met

Is it the case that TCCGTCCCTTGGGTTCTAACCTGTTGCTG (site TCCGTCCCTCA) has recombinant barcode read abundance (log10) reaching or exceeding 0.09?
rule met

Is it the case that GGTCGGACTTGGGTTCTAACCTGTTGCCA (site GGACGGACTTG) has recombinant barcode read abundance (log10) reaching or exceeding 0.09?
rule met

Is it the case that CACTATCCTTGGGTTCTAACCTGTTGCCT (site CATTATCCTAG) has recombinant barcode read abundance (log10) reaching or exceeding 0.09?
rule not met

Is it the case that ATTACTACTTGGGTTCTAACCTGTTGCCT (site AGTACTACTAG) has recombinant barcode read abundance (log10) reaching or exceeding 0.09?
rule met

Is it the case that ACTAGGACTTGGGTTCTAACCTGTTGCGA (site ACTAGGACTTC) has recombinant barcode read abundance (log10) reaching or exceeding 0.09?
rule met

Is it the case that GACCGTCCTTGGGTTCTAACCTGTTGCTT (site GACCGTCCTAT) has recombinant barcode read abundance (log10) reaching or exceeding 0.09?
rule met

Is it the case that GGAAGGTCTTGGGTTCTAACCTGTTGCAT (site ACGTCCACTTG) has recombinant barcode read abundance (log10) reaching or exceeding 0.09?
rule not met

Is it the case that CATTACTCTTGGGTTCTAACCTGTTGCTT (site CTTTCCTCTAA) has recombinant barcode read abundance (log10) reaching or exceeding 0.09?
rule not met

Is it the case that GAGGGCCCTTGGGTTCTAACCTGTTGCGG (site GAGGGCCCTCG) has recombinant barcode read abundance (log10) reaching or exceeding 0.09?
rule met

Is it the case that GTCCCTCCTTGGGTTCTAACCTGTTGCTT (site GTCCCTCCTAC) has recombinant barcode read abundance (log10) reaching or exceeding 0.09?
rule met

Is it the case that AGGCGTCCTTGGGTTCTAACCTGTTGCCG (site AGGCGTCCTAG) has recombinant barcode read abundance (log10) reaching or exceeding 0.09?
rule met

Is it the case that GAGGCGGCTTGGGTTCTAACCTGTTGCTT (site GAGGCGGCTAA) has recombinant barcode read abundance (log10) reaching or exceeding 0.09?
rule met

Is it the case that TGATTTCCTTGGGTTCTAACCTGTTGCCT (site TGATTTCCTAG) has recombinant barcode read abundance (log10) reaching or exceeding 0.09?
rule not met

Is it the case that TGACCTACTTGGGTTCTAACCTGTTGCCA (site CTCTACTCTAC) has recombinant barcode read abundance (log10) reaching or exceeding 0.09?
rule met

Is it the case that AATTTAGCTTGGGTTCTAACCTGTTGCCT (site AATTCAGCTAG) has recombinant barcode read abundance (log10) reaching or exceeding 0.09?
rule met

Is it the case that CTACTAGCTTGGGTTCTAACCTGTTGCAG (site CTACTAGCTGT) has recombinant barcode read abundance (log10) reaching or exceeding 0.09?
rule not met

Is it the case that GGTTGCCCTTGGGTTCTAACCTGTTGCGG (site GGTTGACCTCC) has recombinant barcode read abundance (log10) reaching or exceeding 0.09?
rule met

Is it the case that CTAGTGACTTGGGTTCTAACCTGTTGCGG (site CTAGTGACTAC) has recombinant barcode read abundance (log10) reaching or exceeding 0.09?
rule met

Is it the case that AGTACTACTTGGGTTCTAACCTGTTGCCT (site AGTACTACTAG) has recombinant barcode read abundance (log10) reaching or exceeding 0.09?
rule met

Is it the case that GTTGCGGCTTGGGTTCTAACCTGTTGCCT (site GTTGCGGCTAG) has recombinant barcode read abundance (log10) reaching or exceeding 0.09?
rule met

Is it the case that CGTACCGCTTGGGTTCTAACCTGTTGCCT (site CCTACCGCTAA) has recombinant barcode read abundance (log10) reaching or exceeding 0.09?
rule met

Is it the case that CCAAGGGCTTGGGTTCTAACCTGTTGCGG (site CCAAGGGCTCT) has recombinant barcode read abundance (log10) reaching or exceeding 0.09?
rule met

Is it the case that GTTTCAACTTGGGTTCTAACCTGTTGCGT (site AAGAACTCTCG) has recombinant barcode read abundance (log10) reaching or exceeding 0.09?
rule met

Is it the case that ATATGTACTTGGGTTCTAACCTGTTGCAG (site ATACGGACTCT) has recombinant barcode read abundance (log10) reaching or exceeding 0.09?
rule not met

Is it the case that AAAGTACCTTGGGTTCTAACCTGTTGCCT (site TAAGTACCTAG) has recombinant barcode read abundance (log10) reaching or exceeding 0.09?
rule met

Is it the case that AGCTAATCTTGGGTTCTAACCTGTTGCTT (site GAGCTGCCTTG) has recombinant barcode read abundance (log10) reaching or exceeding 0.09?
rule not met

Is it the case that CGGCCGCCTTGGGTTCTAACCTGTTGCTT (site CGGCCGCCTAA) has recombinant barcode read abundance (log10) reaching or exceeding 0.09?
rule met

Is it the case that TAGCATGCTTGGGTTCTAACCTGTTGCAA (site TAGCATGCTCT) has recombinant barcode read abundance (log10) reaching or exceeding 0.09?
rule met

Is it the case that TGAAAGACTTGGGTTCTAACCTGTTGCCG (site GACGGACCTAT) has recombinant barcode read abundance (log10) reaching or exceeding 0.09?
rule met

Is it the case that CACCTGACTTGGGTTCTAACCTGTTGCCG (site CACCTGACTCG) has recombinant barcode read abundance (log10) reaching or exceeding 0.09?
rule met

Is it the case that CCGTCTACTTGGGTTCTAACCTGTTGCTC (site CCGTCTACTAA) has recombinant barcode read abundance (log10) reaching or exceeding 0.09?
rule not met

Is it the case that GTCTCTACTTGGGTTCTAACCTGTTGCCG (site GTCACTACTCG) has recombinant barcode read abundance (log10) reaching or exceeding 0.09?
rule met

Is it the case that CCTCTGCCTTGGGTTCTAACCTGTTGCCT (site CGTCTCCCTAG) has recombinant barcode read abundance (log10) reaching or exceeding 0.09?
rule met

Is it the case that TCGATCACTTGGGTTCTAACCTGTTGCCT (site TCGATTACTAG) has recombinant barcode read abundance (log10) reaching or exceeding 0.09?
rule not met

Is it the case that CGCCGAACTTGGGTTCTAACCTGTTGCCT (site CGCCGAACTAG) has recombinant barcode read abundance (log10) reaching or exceeding 0.09?
rule not met

Is it the case that ACAGGTTCTTGGGTTCTAACCTGTTGCCT (site ATAGGTTCTAG) has recombinant barcode read abundance (log10) reaching or exceeding 0.09?
rule not met

Is it the case that ATAATACCTTGGGTTCTAACCTGTTGCCT (site ATAATACCTAG) has recombinant barcode read abundance (log10) reaching or exceeding 0.09?
rule met

Is it the case that GTCCGTCCTTGGGTTCTAACCTGTTGCAT (site GTCCGTCCTAG) has recombinant barcode read abundance (log10) reaching or exceeding 0.09?
rule met
